Test system: SN12C renal
test-details: NCI-60 one-dose screen, 48 h (100 = growth as untreated, 0 = no growth, -100 = all killed)
condition-label: 10 µM unless noted
This is part of a sample that, as a whole, favours compounds with a hit. Of some 83,000 tested, about 20% had one in any assay.
quantity-measured: growth (%)
Answer in %, number only, no unit symbol.

Worked set:
mol-smiles	reported-result
O=S(=O)(NCCNc1cc(-c2cn(-c3ccccc3)nc2-c2ccccc2)ccn1)c1cccc2ccccc12	58.9
COc1ccc(/C=C2\Oc3cc(OCCN4CCCC4)ccc3C2=O)c(OC)c1	92.2

Okay, next one:
Query: Entry "COc1cc(-c2csc(NC(=O)Nc3ccc(Cl)cc3Cl)n2)cc(OC)c1OC" : reported growth = ?
Response: 59.5
